Attribution: ChEMBL document CHEMBL3244384

Protocol details: Neurotoxicity in ip dosed albino CD-1 mouse by rotarod test
Assay type: toxicity, organism-based
Stated conditions: in vivo
Value type: TD50

* CC1(C)Oc2ccc(N3C(=O)C[C@@H](N)C3=O)cc2O1.Cl | 960 µmol/kg
* CC(=O)N[C@H]1CC(=O)N(Cc2ccccc2)C1=O | 5280 µmol/kg
* Cl.N[C@H]1CC(=O)N(c2ccc3c(c2)OCO3)C1=O | 5040 µmol/kg
* Cl.N[C@@H]1CC(=O)N(c2ccc3c(c2)OCO3)C1=O | 3330 µmol/kg
* Cl.N[C@@H]1CC(=O)N(Cc2ccc3c(c2)OCO3)C1=O | 1830 µmol/kg
* Cl.N[C@H]1CC(=O)N(Cc2ccc3c(c2)OCO3)C1=O | 2000 µmol/kg
* CCC1(C)CC(=O)NC1=O (stereo unspecified) [ETHOSUXIMIDE] | 2320 µmol/kg
* CN1C(=O)OC(C)(C)C1=O | 3980 µmol/kg
* CC(=O)N[C@@H]1CC(=O)N(Cc2ccccc2)C1=O | 4760 µmol/kg
* CC1(C)Oc2ccc(N3C(=O)C[C@H](N)C3=O)cc2O1.Cl | 1220 µmol/kg
* O=C1N=C([O-])NC1(c1ccccc1)c1ccccc1.[Na+] [PHENYTOIN SODIUM] | 220 µmol/kg

====

Test system: Mus musculus
Protocol details: Neurotoxicity in ip dosed albino CD-1 mouse assessed as time to peak central activity by rotarod test
Assay type: toxicity, organism-based
Stated conditions: in vivo
Value type: Time

• Cl.N[C@@H]1CC(=O)N(c2ccc3c(c2)OCO3)C1=O = 45 min
• CC1(C)Oc2ccc(N3C(=O)C[C@@H](N)C3=O)cc2O1.Cl = 15 min
• Cl.N[C@H]1CC(=O)N(Cc2ccc3c(c2)OCO3)C1=O = 15 min
• O=C1N=C([O-])NC1(c1ccccc1)c1ccccc1.[Na+] [PHENYTOIN SODIUM] = 45 min
• Cl.N[C@@H]1CC(=O)N(Cc2ccc3c(c2)OCO3)C1=O = 15 min
• CC(=O)N[C@@H]1CC(=O)N(Cc2ccccc2)C1=O = 30 min
• CN1C(=O)OC(C)(C)C1=O [TRIMETHADIONE] = 5 min
• CC(=O)N[C@H]1CC(=O)N(Cc2ccccc2)C1=O = 30 min
• CC1(C)Oc2ccc(N3C(=O)C[C@H](N)C3=O)cc2O1.Cl = 30 min
• Cl.N[C@H]1CC(=O)N(c2ccc3c(c2)OCO3)C1=O = 45 min
• CCC1(C)CC(=O)NC1=O (stereo unspecified) [ETHOSUXIMIDE] = 5 min

====

System: Mus musculus
Protocol details: Anticonvulsant activity in ip dosed albino CD-1 mouse assessed as protection from maximal electroshock-induced seizures measured at time of peak effect
Assay type: functional
Stated conditions: CD-1, ip
Reported ED50 values for the following compounds.
Value type: ED50

- Cl.N[C@@H]1CC(=O)N(c2ccc3c(c2)OCO3)C1=O: 3330 µmol/kg
- CCC1(C)CC(=O)NC1=O (centres undefined) [ETHOSUXIMIDE]: 2320 µmol/kg
- O=C1N=C([O-])NC1(c1ccccc1)c1ccccc1.[Na+] [PHENYTOIN SODIUM]: 22 µmol/kg
- CC(=O)N[C@@H]1CC(=O)N(Cc2ccccc2)C1=O: 1460 µmol/kg
